Each item that follows carries a reported melting point.

Example results:
compound=O=c1[nH]c2cc3ccccc3cc2nc1-c1cc(O)c(O)c([N+](=O)[O-])c1 measure="melting point" measured_value="> 300 °C"
compound=Cc1ccc(C(=O)NC(C)(C)C)cn1 measure="melting point" measured_value="104 to 105 °C"

# lookup: melting point of CC(=O)c1ccc(-c2ccnc(Nc3ccc4c(c3)OCCO4)c2)cc1
178 to 180 °C

Record: CCC(=O)NN(C(C)=O)[C@@H]1c2cc(C#N)ccc2OC(C)(C)[C@H]1O (relative stereo)
201 to 203 °C

Record: O=S(=O)(Cl)c1cccc2c1COC2
40 to 43 °C

Record: CC(C)(C)NC(=O)c1ccc(Cl)c(C(F)(F)F)c1
131 °C

Record: Sc1nnc(-c2cnccn2)s1
224 to 228 °C

Record: Clc1ccc(-c2cc[nH]c2)cc1
117 to 118 °C

Record: OCCNC(=S)C1(c2ccccn2)CCCS1 (stereo unspecified)
132 °C

###

Each item that follows carries a reported melting point.

compound="CN(C)CCCC1(C)CCc2cccc(O)c2O1 (stereo unspecified)" measured_value="127 to 133 °C"
compound="CC1(C2Cc3ccccc3O2)CCCCC1 (stereo unspecified)" measured_value="60 to 63 °C"
compound=Cc1ccc(NC(=O)c2cccc(N(C)C)c2)cc1NC(=O)c1cccc(NS(C)(=O)=O)c1 measured_value="239 to 240 °C"
compound=O=C(Nc1nc(-c2ccc([N+](=O)[O-])cc2)cs1)OCC(Cl)(Cl)Cl measured_value="207 to 209 °C"
compound=CC(=O)NCCCc1ccc(Cl)c2occc12 measured_value="61 to 62 °C"

# lookup: melting point of ICCCCCCc1ccc(-c2ccccc2)cc1
77 to 77.5 °C

Record: O=C(c1ccc(Cl)cc1)c1ccc(CBr)cc1Cl
88 to 90 °C

Record: c1ccc(COc2ccc([C@H]3CO3)cc2)cc1
56 to 61 °C

Record: O=C(O)CCCOc1ccc(N2CCN(c3ccncc3)CC2)cc1[N+](=O)[O-]
219 to 220 °C

Record: Cc1c(NC(=O)C(CSC(=O)N(C)C)Cc2ccccc2)cccc1C(=O)O (stereo unspecified)
84 to 87 °C

Record: O=C(CBr)Cc1c(F)cccc1Cl
47 °C

###

Each item that follows carries a reported melting point.

Example results:
molecule=Cc1cccc(-c2nc3ccc(Cl)cn3c2-c2ccnc(-c3ccc(CN4CCOCC4)cc3)c2)n1 measured_value="157 °C"
molecule=CCOC(=O)c1cnn(C)c1C(=O)Nc1ccc2nc(-c3cccnc3)nn2c1 measured_value="217 °C"

# lookup: melting point of CN(C)Cc1ccc(-c2cccc(-c3ccnc4c(C(=O)c5cccs5)cnn34)c2)cc1
192 to 195 °C

Record: CCOC(=O)N1CCn2c(nc(-c3ccncn3)cc2=O)C(NC(=O)c2ccc(-c3cnn(C)c3)cc2)C1 (stereo not given)
265 to 267 °C

Record: COC(=O)CC(C#N)(C(=O)OC)c1cccc2ccc(OC)cc12 (stereo not given)
119 to 121 °C

Record: CC(C)(SC(F)(F)F)C(O)C(Oc1ccc(Cl)cc1)n1cncn1 (stereo not given)
85 to 87 °C

Record: COc1ccc(NC(N)=O)c(C#N)c1OC
198 to 200 °C

Record: O=C1OCN(C(=O)OCc2ccccc2)[C@H]1CCCl
75 to 77 °C

Record: CS(=O)(=O)c1ccc(-c2[nH]c3ccc(Cl)cc3c2-c2ccc(S(C)(=O)=O)cc2)cc1
173 to 175 °C

Record: CC(=O)c1ccc(CBr)s1
58 to 59 °C

Record: Cc1ccc(C(=O)Nc2cc(F)ccc2F)cc1
108 to 110 °C

Record: CC(C)N1CCC(C2c3ccccc3C=Cc3ccccc32)CC1
124 to 126 °C

Record: CC(O)C1C(=O)N2C1=CC(=O)C2C(=O)OCc1ccc([N+](=O)[O-])cc1 (stereo not given)
92 to 98 °C

Record: CN1C(=O)C(F)N=C(c2ccccc2Cl)c2ccc(Cl)cc21 (stereo not given)
204 to 205 °C

Record: COc1ccc(-c2cc(=Nc3c(C)cc(C)cc3C)n(C)c(N(C)Cc3ccccc3)n2)cc1OC
96 to 98 °C

Record: Fc1cc2cc[nH]c2cc1Cl
105 to 107 °C

###

Each item that follows carries a reported melting point.

Example results:
compound=CCCc1cc(=O)oc2cc(OC(=O)CC)cc(O)c12 measure="melting point" measured_value="166 to 168 °C"
compound=O=C(O)c1ccc(S(=O)(=O)Cl)cc1O measure="melting point" measured_value="173 °C"
compound=CC(C)(C)c1ccc([N+]([O-])=S)cc1 measure="melting point" measured_value="40 to 43 °C"
compound="COc1ccc(C2CCc3cc(OC)ccc3C2CCCn2ccnc2)cc1 (stereo not given)" measure="melting point" measured_value="67 °C"
compound=O=C(Sc1ccccn1)c1c(F)c(F)c(F)c(F)c1F measure="melting point" measured_value="51 °C"
compound=CCOC(=O)c1c(C)cc2c(=O)n(-c3ccccc3Cl)cnc2c1C measure="melting point" measured_value="151 to 152 °C"

# lookup: melting point of CCCc1nn(C)c2c(=O)[nH]c(Cc3cccc(N)c3)nc12
207 to 210 °C

Record: CS(=O)(=O)CC(=O)NCCn1ccc2ncnc(Nc3ccc(Oc4cccc(OC(F)(F)F)c4)c(Cl)c3)c21
133 to 135 °C

Record: CCCCN(CCCC)c1ccc(C=C(S(C)(=O)=O)S(C)(=O)=O)cc1
114 to 115 °C

Record: Cc1nc(C)c(C(=O)Nc2ccc(-n3nc(C(F)(F)F)cc3C(F)(F)F)cc2)s1
158 to 159 °C

###

Each item that follows carries a reported melting point.

Example results:
molecule="Cn1cnnc1S(=O)CC(=O)C12CC3CC(CC(C3)C1)C2 (stereo unspecified)" measure="melting point" measured_value="124 to 127 °C"
molecule=O=C1c2cc(O)ccc2N(Cc2ccccc2)C2=NCCN12 measure="melting point" measured_value="225 to 227 °C"

# lookup: melting point of O=Cc1cccc(Oc2ccccc2)c1F
75 to 77 °C

Record: CC(C)On1c(-c2ccccc2)nc2c(N)nc3ccccc3c21
188 to 191 °C

Record: Brc1cncc(N2C=CCC2)c1
98 to 99 °C

###

Each item that follows carries a reported melting point.

molecule="Cc1noc2cc3c(cc12)C1(CO3)C(=O)N(Cc2nc(C(=O)N(C)C)co2)c2ccccc21 (stereo not given)" measure="melting point" measured_value="87 to 89 °C"
molecule="CCCCN1CCSC1S(=O)(=O)N=NC(=O)Nc1nc(OC)cc(OC)n1 (stereo not given)" measure="melting point" measured_value="139 to 140 °C"
molecule=Clc1c(Br)cncc1Br measure="melting point" measured_value="101 to 103 °C"
molecule=Cc1ccc(S(=O)(=O)N[C@@H](C)C(=O)Oc2csc(-c3ccccc3)c2)cc1 measure="melting point" measured_value="85 to 87 °C"
molecule="O=C(OC1COC(OC(=O)c2ccccc2)CO1)c1ccccc1 (stereo not given)" measure="melting point" measured_value="187 to 189 °C"
molecule=Cn1cnc2c(=O)[nH]c(N)nc21 measure="melting point" measured_value="> 300 °C"

Now examine the next entry.
# lookup: melting point of CCOC(=O)c1cn(-c2ccc(F)cc2)c2cc(-c3cc(C)no3)ccc2c1=O
214 to 216 °C

###

Each item that follows carries a reported melting point.

compound=CC#Cc1ccc(NC(=O)c2cccnc2NCc2ccc(=O)[nH]c2)cc1C(F)(F)F measured_value="211 to 218 °C"

Now examine the next entry.
# lookup: melting point of C=Cc1ccc(OC(C)C)c(OCCN2C(=O)c3ccccc3C2=O)c1
78 °C

###

Each item that follows carries a reported melting point.

molecule="COc1ccc(CC2(C)CN(C(c3ccccc3)c3ccccc3)CCN2)cc1OC (stereo not given)" measure="melting point" measured_value="123 °C"
molecule=COc1cc2ncc(C#N)c(Nc3ccc(Cl)c(C(F)(F)F)c3)c2cc1OC measure="melting point" measured_value="265 to 267 °C"
molecule=O=C(NN=Cc1ccc2ccccc2n1)c1ccccc1[N+](=O)[O-] measure="melting point" measured_value="195 to 196 °C"
molecule=COc1ccccc1N(CCN1CCC(C(=O)c2ccc(F)cc2)CC1)C(=O)c1ccc(C#N)cc1 measure="melting point" measured_value="155 to 158 °C"
molecule=O=C(/C=C/C=C/c1ccccc1[N+](=O)[O-])NCCCCCC(=O)NO measure="melting point" measured_value="131 to 133 °C"
molecule="CC(C)(C)C(O)(CNc1ccc(Cl)c(Cl)c1)Cn1cncn1 (stereo not given)" measure="melting point" measured_value="132 to 133 °C"

# lookup: melting point of CC(C)(C)C(O)(Cn1cncn1)C1CC1c1ccc(Cl)cc1Cl (stereo not given)
98 to 101 °C

Record: CCCc1nc2c(N)nc3c(c2n1CC(C)(C)OCCS(C)(=O)=O)CCCC3
188 to 190 °C

Record: CCNC(=O)N(O)CC#Cc1cccc(C2=N[C@H](c3ccccc3)CO2)c1
141 to 143 °C

Record: CON(C)C(=O)Nc1ccc(CN2OCC(C)(C)C2=O)c(Cl)c1
93 to 95 °C
